# EXPERIMENTAL_TARGET: NK1 (Homo sapiens)
# TEST_SUMMARY: Signal transduction (ST), intracellular Ca++ (FLIPR), NK1 antagonistic activity
# Assay type: cell-based
# STUDY_CONDITIONS: read-out: pIC50 NK1 (converted)
RECORDED_ENDPOINT: IC50

Some solved entries appear below for comparison.
O=C(CN1CCOCC1)N1CCC(N2CCN([C@H]3CCN(C(=O)c4cc(C(F)(F)F)cc(C(F)(F)F)c4)[C@H](Cc4ccccc4)C3)CC2)C1 (some centres unmarked) [Compound 197] :: 25.1 nM
O=C(c1cc(C(F)(F)F)cc(C(F)(F)F)c1)N1CC[C@H](N2CCN(C3CCN(Cc4nc5ccccc5[nH]4)C3)CC2)C[C@H]1Cc1ccccc1 (some centres unmarked) [Compound 10] :: 100 nM
O=C(c1cc(C(F)(F)F)cc(C(F)(F)F)c1)N1CCC(N2CCN(C3CCN(C(=O)C(F)(F)F)C3)CC2)CC1Cc1ccccc1 (centres unmarked) [Compound 203] :: 20 nM
O=C(C1CCCCC1)N1CC[C@@H](N2CCN([C@H]3CCN(C(=O)c4cc(C(F)(F)F)cc(C(F)(F)F)c4)[C@H](Cc4ccc(Cl)c(Cl)c4)C3)CC2)C1 [Compound 299] :: 7.94 nM

Alright, here's another compound for you.
Tell me the measured IC50 of O=C(c1ccco1)N1CCC(N2CCN([C@H]3CCN(C(=O)c4cc(C(F)(F)F)cc(C(F)(F)F)c4)[C@H](Cc4ccccc4)C3)CC2)C1 (some centres unmarked) [Compound 35] , please.
25.1 nM

---

# EXPERIMENTAL_TARGET: NK3 (Homo sapiens, UniProt P29371)
# Sequence (P29371 whole entry): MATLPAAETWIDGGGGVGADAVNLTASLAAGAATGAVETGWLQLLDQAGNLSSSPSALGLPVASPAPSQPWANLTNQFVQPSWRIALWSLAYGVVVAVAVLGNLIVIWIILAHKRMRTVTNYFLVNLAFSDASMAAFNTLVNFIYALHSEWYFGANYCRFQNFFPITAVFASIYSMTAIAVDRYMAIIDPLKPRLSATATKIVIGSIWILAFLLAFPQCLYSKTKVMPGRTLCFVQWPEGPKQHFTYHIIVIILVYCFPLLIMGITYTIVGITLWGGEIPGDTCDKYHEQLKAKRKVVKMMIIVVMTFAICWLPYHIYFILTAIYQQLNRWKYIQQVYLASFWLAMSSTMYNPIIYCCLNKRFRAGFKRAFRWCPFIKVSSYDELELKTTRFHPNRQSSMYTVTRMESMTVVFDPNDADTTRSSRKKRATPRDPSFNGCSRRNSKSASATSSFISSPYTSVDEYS
# TEST_SUMMARY: Signal transduction (ST), intracellular Ca++ (FLIPR), NK3
# Type: cell-based
# STUDY_CONDITIONS: read-out: pIC50 NK3 (converted)
RECORDED_ENDPOINT: IC50 (nM)
Give bare numbers, in nM.

Cc1ccccc1-n1cncc1CN1CCC(N2CCN([C@H]3CCN(C(=O)c4cc(C(F)(F)F)cc(C(F)(F)F)c4)[C@H](Cc4ccccc4)C3)CC2)C1 (stereo partly drawn) [Compound 9] :: 1260
O=C(C1CCCCC1)N1CCC(N2CCN(C3CCN(C(=O)c4cc(C(F)(F)F)cc(C(F)(F)F)c4)C(Cc4ccccc4)C3)CC2)C1 (single isomer, unassigned) [Compound 402] :: 501

Turning to the following molecule.
Recorded IC50 for O=C(c1cc(C(F)(F)F)cc(C(F)(F)F)c1)N1CC[C@H](N2CCN(C3CCN(S(=O)(=O)c4sccc4CO)C3)CC2)C[C@H]1Cc1ccccc1 (stereo partly drawn) [Compound 308] with NK3 (Homo sapiens, UniProt P29371), please?
251

---

# EXPERIMENTAL_TARGET: NK1 (Homo sapiens, UniProt P25103)
# Sequence (P25103 whole entry): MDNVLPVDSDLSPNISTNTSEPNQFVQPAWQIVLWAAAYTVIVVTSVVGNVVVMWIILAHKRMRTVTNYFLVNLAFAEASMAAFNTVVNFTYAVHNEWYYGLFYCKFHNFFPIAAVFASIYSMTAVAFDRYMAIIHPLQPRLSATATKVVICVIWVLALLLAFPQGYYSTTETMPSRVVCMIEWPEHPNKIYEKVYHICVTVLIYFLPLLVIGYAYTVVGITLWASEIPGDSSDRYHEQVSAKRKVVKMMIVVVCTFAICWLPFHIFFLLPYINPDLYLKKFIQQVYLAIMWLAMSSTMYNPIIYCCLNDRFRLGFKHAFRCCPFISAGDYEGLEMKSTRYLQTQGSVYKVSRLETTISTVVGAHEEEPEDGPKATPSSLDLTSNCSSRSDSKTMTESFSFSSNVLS
# TEST_SUMMARY: Signal transduction (ST), intracellular Ca++ (FLIPR), NK1 antagonistic activity
# Type: cell-based
# STUDY_CONDITIONS: read-out: pIC50 NK1 (converted)
RECORDED_ENDPOINT: IC50 (nM)
Numbers only, in nM.

O=C(c1cc(C(F)(F)F)cc(C(F)(F)F)c1)N1CC[C@H](N2CCN(C3CCN(c4nc5ccccc5s4)C3)CC2)C[C@H]1Cc1ccccc1 (stereo partly shown) :: 200

Give me IC50 for each of these molecules, listed below.
1. CC(C)(C)OC(=O)N1CCC[C@H]1C(=O)N1CCC(N2CCN([C@H]3CCN(C(=O)c4cc(C(F)(F)F)cc(C(F)(F)F)c4)[C@H](Cc4ccccc4)C3)CC2)C1 (stereo partly shown)
2. CN(C(=O)OC(C)(C)C)C(C)(C)C(=O)N1CCC(N2CCN(C3CCN(C(=O)c4cc(C(F)(F)F)cc(C(F)(F)F)c4)C(Cc4ccccc4)C3)CC2)C1 (stereo not shown)
3. CC(C)N/C(=C\[N+](=O)[O-])N1CCC(N2CCN(C3CCN(C(=O)c4cc(C(F)(F)F)cc(C(F)(F)F)c4)C(Cc4ccccc4)C3)CC2)C1 (stereo not shown)
4. O=C(c1sccc1CCOCc1ccccc1)N1CCC(N2CCN([C@H]3CCN(C(=O)c4cc(C(F)(F)F)cc(C(F)(F)F)c4)[C@H](Cc4ccccc4)C3)CC2)C1 (stereo partly shown)
5. COc1ccc(S(=O)(=O)N2CCC(N3CCN([C@H]4CCN(C(=O)c5cc(C(F)(F)F)cc(C(F)(F)F)c5)[C@H](Cc5ccccc5)C4)CC3)C2)cc1OC (stereo partly shown)
6. O=C(C1CC1)N1CCC(N2CCN(C3CCN(C(=O)c4cc(C(F)(F)F)cc(C(F)(F)F)c4)C(Cc4ccc(F)cc4)C3)CC2)C1 (stereo not shown)

20
10
31.6
79.4
12.6
10

The measurements presented in this section are drawn from patent US7795261B2.
